As an illustration, consider measured pIC50 for compounds on Lanosterol 14-alpha demethylase (Candida albicans) (UniProt P10613).
Sequence (P10613 whole entry, looked up): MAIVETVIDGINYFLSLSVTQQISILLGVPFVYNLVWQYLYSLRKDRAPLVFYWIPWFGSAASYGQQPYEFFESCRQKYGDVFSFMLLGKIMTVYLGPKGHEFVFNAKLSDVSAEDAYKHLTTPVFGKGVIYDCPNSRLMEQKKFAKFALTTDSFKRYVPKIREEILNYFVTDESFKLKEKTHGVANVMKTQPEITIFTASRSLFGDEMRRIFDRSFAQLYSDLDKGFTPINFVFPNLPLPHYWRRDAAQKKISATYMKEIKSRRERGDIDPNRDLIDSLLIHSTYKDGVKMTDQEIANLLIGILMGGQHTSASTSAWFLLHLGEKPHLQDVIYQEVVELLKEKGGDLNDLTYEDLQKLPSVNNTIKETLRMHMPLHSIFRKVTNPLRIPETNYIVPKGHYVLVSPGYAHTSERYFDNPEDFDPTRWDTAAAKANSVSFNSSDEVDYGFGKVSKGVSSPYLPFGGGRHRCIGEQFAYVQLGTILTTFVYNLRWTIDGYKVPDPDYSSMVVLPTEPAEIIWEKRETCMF
One number for each entry, as −log10 of the molar value.

CC1(C)CC[C@@H](COc2ccc(OC(F)(F)F)cc2)[C@H](Cn2cncn2)C1OCCO (some centres not stated)
7.65

stdin: Requested field: pIC50. Item: `CC1(C)CC[C@@H](COc2ccc(OC(F)(F)F)cc2)[C@H](Cn2cncn2)/C1=N\O`
stdout: 6.89
